Below is a list of entries, each paired with its recorded IC50 value.
Biological target: human LPA1 (Homo sapiens, UniProt Q92633)
Construct: the full-length cDNA for human LPA1 was obtained by PCR of the reverse transcription reaction
Sequence (Q92633 whole entry): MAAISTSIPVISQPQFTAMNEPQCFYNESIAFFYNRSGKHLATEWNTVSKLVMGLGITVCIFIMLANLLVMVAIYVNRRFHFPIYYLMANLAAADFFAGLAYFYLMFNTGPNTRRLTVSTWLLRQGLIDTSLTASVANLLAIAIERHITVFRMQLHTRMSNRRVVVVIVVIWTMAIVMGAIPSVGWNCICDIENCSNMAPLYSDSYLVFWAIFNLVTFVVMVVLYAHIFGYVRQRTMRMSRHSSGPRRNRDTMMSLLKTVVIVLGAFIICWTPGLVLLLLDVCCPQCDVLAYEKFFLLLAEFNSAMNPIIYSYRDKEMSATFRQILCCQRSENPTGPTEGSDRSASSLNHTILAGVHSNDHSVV
Assay: LPA1 calcium flux assay
Details: CHO cells expressing human LPA1, stimulated with 10 nM LPA; read-out: HLPA1 Ca Flux IC50
Method: A 1.1 kb cDNA encoding the human LPA1 receptor was cloned from human lung. […] Human LPA1 or LPA3 expressing CHO cells are seeded at 20,000-45,000 cells per well in a 96-well poly-D-lysine coated plate one or two days before the assay. […] Cells are the stimulated by the addition of 10 nM LPA and intracellular Ca^2+ measured using the Flexstation 3 (Molecular Devices). IC50s are determined using Graphpad prism analysis of drug titration curves.

>  <Compound>
Cc1noc(-c2ccc(-c3ccc(C4(C(=O)O)CC4)cc3)cc2)c1C(C)C(=O)NC(C)c1ccccc1 (stereo not shown)

>  <IC50>
1000 to 50000 nM

$$$$
>  <Compound>
Cc1noc(-c2ccc(-c3ccc(C4(C(=O)O)CC4)cc3)cc2)c1NC(=O)N(C)C(C)C

>  <IC50>
1000 to 50000 nM

$$$$
>  <Compound>
COc1ccc(CCC(O)c2c(C)noc2-c2ccc(-c3ccc(C4(CC(=O)O)CC4)cc3)cc2)cc1 (stereo not shown)

>  <IC50>
1000 to 50000 nM

$$$$
>  <Compound>
Cc1noc(-c2ccc(-c3ccc(C4(C(=O)O)CC4)cc3)cc2)c1C(=O)CCc1ccccc1

>  <IC50>
1000 to 50000 nM

$$$$

Entry Cc1noc(-c2ccc(-c3ccc(C4(C(=O)O)CC4)cc3)cc2)c1NC(C)c1cc2ccccc2s1 (stereo not shown) ; IC50 = < 300 nM

Entry Cc1noc(-c2ccc(-c3ccc(C4(C(=O)O)CC4)cc3)cc2)c1Nc1cccc(C(=O)NCC(C)(C)C)n1 ; IC50 = < 300 nM

Entry Cc1noc(-c2ccc(-c3ccc(C4(C(=O)O)CC4)cc3)cc2)c1CC(=O)N[C@@H]1CCc2ccccc21 ; IC50 = > 50000 nM

* * *

molecular target: human LPA1 (Homo sapiens); construct: the full-length cDNA for human LPA1 was obtained by PCR of the reverse transcription reaction; assay: LPA1 calcium flux assay; settings: CHO cells expressing human LPA1, stimulated with 10 nM LPA; read-out: HLPA1 Ca Flux IC50
Below is a list of entries, each paired with its recorded IC50 value.

Some compounds with known IC50 results, for comparison:
>  <Compound>
CCC(C(=O)O)c1ccc(-c2ccc(-c3onc(C)c3C(O)CCCc3ccccc3C(F)(F)F)cc2)cc1 (stereo not shown)

>  <Measured attribute>
IC50

>  <Assay value>
300 to 1000 nM

$$$$
>  <Compound>
Cc1noc(-c2ccc(-c3ccc(C4(C(=O)O)CC4)cc3)cc2)c1CN(C)CC(C)c1ccccc1 (stereo not shown)

>  <Measured attribute>
IC50

>  <Assay value>
< 300 nM

$$$$
>  <Compound>
Cc1noc(-c2ccc(-c3ccc(C(C)(C)C(=O)O)cc3)cc2)c1CSCCc1ccccc1

>  <Measured attribute>
IC50

>  <Assay value>
< 300 nM

$$$$
>  <Compound>
Cc1noc(-c2ccc(-c3ccc(C4(C(=O)O)CC4)cc3)cc2)c1CCC(=O)Nc1ccccc1

>  <Measured attribute>
IC50

>  <Assay value>
> 50000 nM

$$$$
>  <Compound>
Cc1noc(-c2ccc(-c3ccc(C4(C(=O)O)CC4)cc3)cc2)c1CC[S+]([O-])Cc1ccccc1 (stereo not shown)

>  <Measured attribute>
IC50

>  <Assay value>
1000 to 50000 nM

$$$$

// compound Cc1noc(-c2ccc(-c3cccc(CCC(=O)O)c3)cc2)c1C(O)CCCc1ccccc1 (stereo not shown) , assay human LPA1 (Homo sapiens), IC50 value: < 300 nM

// compound Cc1noc(-c2ccc(-c3ccc(C4(CC(=O)O)CC4)cc3)cc2)c1CC(F)(F)CCc1ccccc1 , assay human LPA1 (Homo sapiens), IC50 value: < 300 nM

* * *

biological target: human LPA1 (Homo sapiens); construct: the full-length cDNA for human LPA1 was obtained by PCR of the reverse transcription reaction; assay: LPA1 calcium flux assay; conditions: CHO cells expressing human LPA1, stimulated with 10 nM LPA; read-out: HLPA1 Ca Flux IC50
pIC50: −log10 of the molar value.
Measured attribute: pIC50

>  <Compound>
Cc1noc(-c2ccc(-c3ccc(C4(C(=O)O)CC4)cc3)cc2)c1C(O)/C=C/c1cccc(C(F)(F)F)c1 (centres unmarked)

>  <Study target>
human LPA1 (Homo sapiens)

>  <pIC50>
> 6.52

$$$$
>  <Compound>
Cc1noc(-c2ccc(-c3ccccc3CCC(=O)O)cc2)c1C(O)CCCc1ccccc1 (centres unmarked)

>  <Study target>
human LPA1 (Homo sapiens)

>  <pIC50>
4.30 to 6.00

$$$$
>  <Compound>
Cc1noc(-c2ccc(-c3ccc(C4(C(=O)O)CC4)cc3)cc2)c1COCc1ccccc1Cl

>  <Study target>
human LPA1 (Homo sapiens)

>  <pIC50>
4.30 to 6.00

$$$$
>  <Compound>
Cc1noc(-c2ccc(-c3ccc(C4(C(=O)O)CC4)cc3)cc2)c1/C=C\CCc1ccccc1

>  <Study target>
human LPA1 (Homo sapiens)

>  <pIC50>
> 6.52

$$$$
>  <Compound>
Cc1noc(-c2ccc(-c3ccc(C4(C(=O)O)CC4)cc3)cc2)c1C=CC(C)Cc1ccc(C(C)C)cc1 (centres unmarked)

>  <Study target>
human LPA1 (Homo sapiens)

>  <pIC50>
4.30 to 6.00

$$$$
>  <Compound>
Cc1noc(-c2ccc(-c3ccc(CCC(=O)O)cc3)cc2)c1C(O)CCCc1ccccc1 (centres unmarked)

>  <Study target>
human LPA1 (Homo sapiens)

>  <pIC50>
> 6.52

$$$$
>  <Compound>
Cc1noc(-c2ccc(-c3ccc(C4(C(=O)O)CC4)cc3)cc2)c1Nc1cccc(C(=O)NCCN(C)C)n1

>  <Study target>
human LPA1 (Homo sapiens)

>  <pIC50>
4.30 to 6.00

$$$$
>  <Compound>
Cc1noc(-c2ccc(-c3ccc(CC4(C(=O)O)CC4)cc3)cc2)c1C(O)CCCc1ccccc1 (centres unmarked)

>  <Study target>
human LPA1 (Homo sapiens)

>  <pIC50>
> 6.52

$$$$

Entry Cc1noc(-c2ccc(-c3ccc(C4(C(=O)O)CC4)cc3)cc2)c1CCOCc1ccncc1 ; pIC50 = < 4.30

Entry Cc1noc(-c2ccc(-c3ccc(C4(C(=O)O)CC4)cc3)cc2)c1CC(=O)CCc1ccccc1 ; pIC50 = > 6.52

Entry Cc1cccc(SCC(O)c2c(C)noc2-c2ccc(-c3ccc(C4(C(=O)NS(C)(=O)=O)CC4)cc3)cc2)c1 (centres unmarked) ; pIC50 = > 6.52

Entry Cc1noc(-c2ccc(-c3ccc(C4CC4C(=O)O)cc3)cc2)c1[C@H](O)COCc1ccccc1 (single isomer, unassigned) [Compound 1-216] ; pIC50 = > 6.52

Entry Cc1noc(-c2ccc(-c3ccc([C@H]4C[C@H]4C(=O)O)cc3)cc2)c1/C=C/CCc1ccccc1 (relative stereo) ; pIC50 = > 6.52

Entry Cc1noc(-c2ccc(-c3ccc(C4(C(=O)O)CC4)cc3)cc2)c1CCC(=O)N(C)CC1CC1 ; pIC50 = 6.00 to 6.52

* * *

biological target: human LPA1 (Homo sapiens, UniProt Q92633); construct: the full-length cDNA for human LPA1 was obtained by PCR of the reverse transcription reaction; test: LPA1 calcium flux assay; settings: CHO cells expressing human LPA1, stimulated with 10 nM LPA; read-out: HLPA1 Ca Flux IC50
Measured attribute: IC50

>  <Compound>
Cc1noc(-c2ccc(-c3ccc(CC(=O)O)cc3)cc2)c1NC(C)CCc1cccc(F)c1 (stereo not shown) [Compound 1-165]

>  <IC50>
< 300 nM

$$$$
>  <Compound>
Cc1noc(-c2ccc(-c3ccc(C4(C(=O)O)CC4)cc3)cc2)c1CNC(=O)C(C)(C)c1ccccc1 [Compound 1-98]

>  <IC50>
< 300 nM

$$$$
>  <Compound>
Cc1noc(-c2ccc(-c3ccc(C4(C(=O)O)CC4)cc3)cc2)c1NC(=O)c1cccc(Br)c1 [Compound 1-292]

>  <IC50>
300 to 1000 nM

$$$$

Consider now this further compound.
Entry Cc1noc(-c2ccc(-c3ccc(C4(C(=O)O)CC4)cc3)cc2)c1C(O)C(=O)NCCc1ccccc1 (stereo not shown) [Compound 1-249] ; IC50 = < 300 nM

* * *

target: human LPA1 (Homo sapiens, UniProt Q92633); construct: the full-length cDNA for human LPA1 was obtained by PCR of the reverse transcription reaction; assay: LPA1 calcium flux assay; conditions: CHO cells expressing human LPA1, stimulated with 10 nM LPA; read-out: HLPA1 Ca Flux IC50
Measured attribute: IC50

Some compounds with known IC50 results, for comparison:
>  <Compound>
Cc1noc(-c2ccc(-c3ccc(C4(C(=O)O)CC4)cc3)cc2)c1C[S+]([O-])CCc1ccccc1 (stereo not drawn)

>  <Assay value>
< 300 nM

$$$$
>  <Compound>
Cc1noc(-c2ccc(-c3ccc(C4(C(=O)O)CC4)cc3)cc2)c1NC(C)C(O)Cc1ccccc1 (single isomer, unassigned) [Compound 1-283]

>  <Assay value>
< 300 nM

$$$$

Entry Cc1noc(-c2ccc(-c3ccc(C4(C(=O)O)CC4)cc3)cc2)c1C(O)C/C=C/c1ccccc1 (stereo not drawn) ; IC50 = < 300 nM
